# run-description: NCI Yeast Anticancer Drug Screen. Data for the rad50 strain (AID 155);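 also: 0% = growth of vehicle-only cultures of the same strain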
# conditions-used: S. cerevisiae rad50 strain growth inhibition, stronger effect = higher value; at 50.0 µM unless noted
# Procedure: Growth inhibition of yeast strains with defined genetic alterations is measured as a screen for potential anti-cancer activity. Selected strains with alterations in DNA damage repair or cell cycle control were exposed to compounds and growth inhibition was measured relative to vehicle treated controls. The strain used in this assay is rad50
The panel holds about 79,000 compounds, 15% with a hit somewhere; the sample as a whole holds those more often.

molecule: O=c1c2cc(O)c(O)cc2oc2cc(O)c(C3OC(CO)C(O)C(O)C3O)c(O)c12 (stereo not drawn)
growth inhibition / %: 14.2
//
molecule: Oc1ccc(Br)cc1/C=N/N1CCN(/N=C/c2cc(Br)ccc2O)CC1
growth inhibition / %: 22.9
//
molecule: O=[N+]([O-])c1cc(N(c2ccccc2)c2ccccc2)c(Cl)cc1Cl
growth inhibition / %: -8.35
//
molecule: COc1cc2c(c3oc4c(O)cccc4c(=O)c13)CC(C(C)(O)CO)O2 (stereo not drawn)
growth inhibition / %: 24.2
//
molecule: CCCCCOC(=O)c1ccc(C(C)C)cc1
growth inhibition / %: 10.2
//
molecule: Cc1ccc([N+](=O)[O-])cc1NS(=O)(=O)c1cc(Cl)c(Cl)cc1Cl
growth inhibition / %: 19.8
//
molecule: c1ccc(C2Cc3ccccc3C2c2ccccc2)cc1 (stereo not drawn)
growth inhibition / %: 9.85
//
molecule: COc1ccc(C(NC(N)=O)c2cc3c(cc2OC(C)=O)OCO3)cc1 (stereo not drawn)
growth inhibition / %: -7.25
//
molecule: COc1ccc(CC2c3cc(OC)c(OC)cc3CC[N+]2(C)C)cc1OC (stereo not drawn)
growth inhibition / %: -13.1
//
molecule: CC(=O)OC(CCC1CO1)OC(C)=O (stereo not drawn)
growth inhibition / %: 0.65
//
molecule: Cc1ncc([N+](=O)[O-])n1CC(O)Cn1cnc([N+](=O)[O-])n1 (stereo not drawn)
growth inhibition / %: -19
//
molecule: COC(=O)C1(C)CCCC2(C)c3cc(OC)ccc3C(=O)CC12 (stereo not drawn)
growth inhibition / %: 24.4
//
molecule: CCCCOC/N=C(/N)NC#N
growth inhibition / %: 10.9
//
molecule: CCOc1ccc(N2C(=O)/C(=C/c3ccc(N(CCC#N)CCC#N)cc3)N=C2c2cc([N+](=O)[O-])ccc2Cl)cc1
growth inhibition / %: 5.85
//
molecule: O=C(COc1cc(Cl)c(Cl)cc1Cl)Nc1ccc(Cl)cc1
growth inhibition / %: 14.7
//
molecule: Nc1ccc(N=Nc2c(S(=O)(=O)O)cc3ccccc3c2S(=O)(=O)O)cc1
growth inhibition / %: -23
//
molecule: Cc1cn(C2CC(ON)C(CO)O2)c(=O)[nH]c1=O (stereo not drawn)
growth inhibition / %: -8.1
//
molecule: CCN(CC)CCn1c2ccccc2c(=O)c2c(OC)ccc(OC)c21
growth inhibition / %: 54.4
//
molecule: COC(=O)c1ccccc1NS(=O)(=O)c1ccc(Cl)cc1
growth inhibition / %: 42.2
//
molecule: Cc1cc(C(c2ccccc2)n2c3ccccc3c3ccccc32)cc(C)c1O (stereo not drawn)
growth inhibition / %: 6.5
//
molecule: O=C(OC1CCCCCCC1OC(=O)c1ccc([N+](=O)[O-])cc1)c1ccc([N+](=O)[O-])cc1 (stereo not drawn)
growth inhibition / %: 7.05
//
molecule: CCNc1ncnc2c1nnn2CC
growth inhibition / %: -5.55
//
molecule: COc1ccccc1/C=C1\C(=O)N(C(=O)c2ccc(NC(C)=O)cc2)N=C1C
growth inhibition / %: 1.6

###

# run-description: NCI Yeast Anticancer Drug Screen. Data for the mlh1 rad18 strain (AID 175)
# conditions-used: S. cerevisiae mlh1 rad18 strain growth inhibition, stronger effect = higher value; at 50.0 µM unless noted
Compounds without any hit were thinned out: in the full panel of roughly 79,000, 15% have a hit.
Recorded measurements of growth inhibition, one per entry
readout-label: growth inhibition (%)

molecule: CC1=CCC(C(C)C)C2CC(C)(O)CCC12 (stereo not given)
readout-label: growth inhibition
observed-result: 0.95

molecule: CS/C(=N\c1nccs1)NC(=O)c1cccc(Cl)c1
readout-label: growth inhibition
observed-result: 10.8

molecule: Cc1ccc(S(=O)(=O)CCN2CCN(C)CC2)cc1
readout-label: growth inhibition
observed-result: 1.05

molecule: CCOC(=O)C(CC(C)C)NC(=O)c1c2nc3c(C(=O)NC(CC(C)C)C(=O)OCC)cc(NC(C)=O)c(C)c3oc-2c(C)c(=O)c1N (stereo not given)
readout-label: growth inhibition
observed-result: 48.8

molecule: COc1ccccc1OC(=O)Nc1ccc(S(=O)(=O)NC2CCCCC2)cc1
readout-label: growth inhibition
observed-result: -2.2

###

# run-description: NCI Yeast Anticancer Drug Screen. Data for the mlh1 rad18 strain (AID 175)
# conditions-used: S. cerevisiae mlh1 rad18 strain growth inhibition, stronger effect = higher value; at 50.0 µM unless noted
This is part of a sample that, as a whole, favours compounds with a hit. Of some 79,000 tested, about 15% had one in any assay.

molecule: CN1CCN(C2c3ccccc3OC(C)(C)C2O)CC1 (configuration not stated)
units-of-measure: %
growth inhibition: 8.8
//
molecule: COc1ccc(C2Oc3cc(OC)c(O)cc3[C@@H]2C)cc1 (some centres not stated)
units-of-measure: %
growth inhibition: 31
//
molecule: Cc1ccc2c(N=Nc3ccc(C(=N)N)cc3)ccc(O)c2n1
units-of-measure: %
growth inhibition: 99.2
//
molecule: CSC(=S)N/N=C(\C)c1cccs1
units-of-measure: %
growth inhibition: 10.8
//
molecule: CC(=O)C(C(C)=O)=C1CCCC(O)O1 (configuration not stated)
units-of-measure: %
growth inhibition: 13.1
//
molecule: NC(=O)CCCO
units-of-measure: %
growth inhibition: 2.4
//
molecule: CCCCc1cc(C(=O)OC/C(C)=N/NC(N)=O)c2ccccc2n1
units-of-measure: %
growth inhibition: 9.45
//
molecule: CC1(C)COC1(c1ccccc1)c1cccnc1 (configuration not stated)
units-of-measure: %
growth inhibition: -16.8
//
molecule: NC(=O)c1c(NC=O)ncn1C1OCC(O)C(O)C1O (configuration not stated)
units-of-measure: %
growth inhibition: 12.8
//
molecule: O=C(NO)c1ccccc1
units-of-measure: %
growth inhibition: 27.8
//
molecule: CCCCC(CC)CCC(C)O (configuration not stated)
units-of-measure: %
growth inhibition: -14.7
//
molecule: O=C(O)c1cccc(S(=O)(=O)c2ccc([N+](=O)[O-])cc2)c1
units-of-measure: %
growth inhibition: 14.2
//
molecule: Cc1nn(C(=O)Cc2ccccc2)c2c1C(c1ccc(Cl)cc1)SC(N)=N2 (configuration not stated)
units-of-measure: %
growth inhibition: -25.1
//
molecule: O=C(c1ccccc1)C(C(Nc1ccccc1)c1ccccc1)N1CCOCC1 (configuration not stated)
units-of-measure: %
growth inhibition: 22.6
//
molecule: O=c1/c(=C/c2ccccc2[N+](=O)[O-])sc2nc3ccccc3n12
units-of-measure: %
growth inhibition: -47.2
//
molecule: CC(=O)c1ccccc1NC=O
units-of-measure: %
growth inhibition: 4.15
//
molecule: CC(C)c1ccccc1NC(=O)CCC(=O)NN
units-of-measure: %
growth inhibition: -11.7
//
molecule: Cc1ccc(C(=O)/C=C/c2cccc3ccccc23)cc1
units-of-measure: %
growth inhibition: 3.95
//
molecule: O=c1ccc2ccccc2cc1
units-of-measure: %
growth inhibition: 8.4
//
molecule: COC(=O)C(=O)C1(c2ccccc2)C(=O)C(c2ccccc2)=CC1O (configuration not stated)
units-of-measure: %
growth inhibition: 18.6
//
molecule: COc1cccc(C)c1O
units-of-measure: %
growth inhibition: 3.3
//
molecule: O=C1NC(N2CCOCC2)=N/C1=C\c1cccs1
units-of-measure: %
growth inhibition: -34
//
molecule: CCOC(=O)C(F)C(=O)OCC
units-of-measure: %
growth inhibition: -5.4
//
molecule: CCOC(=O)C(C)NC(=O)NC12CC3CC(CC(F)(C3)C1)C2 (configuration not stated)
units-of-measure: %
growth inhibition: -0.2
//
molecule: CCCCNC(=O)c1cc(=O)[nH]c(=O)[nH]1
units-of-measure: %
growth inhibition: 20.1
//
molecule: OC(CN1CCCCC1)c1cc(-c2ccccc2)no1 (configuration not stated)
units-of-measure: %
growth inhibition: 16.4
//
molecule: C=CCn1c(=O)c2ccccc2[n+]2c(C)c(C(=O)OCC)sc12
units-of-measure: %
growth inhibition: -19.6

###

# run-description: NCI Yeast Anticancer Drug Screen. Data for the mlh1 rad18 strain (AID 175)
# conditions-used: S. cerevisiae mlh1 rad18 strain growth inhibition, stronger effect = higher value; at 50.0 µM unless noted
Compounds without any hit were thinned out: in the full panel of roughly 79,000, 15% have a hit.

molecule: Nc1nc2c(ncn2-c2ccc(Br)cc2)c(=O)[nH]1
units-of-measure: %
growth inhibition: 59.8
//
molecule: NCC(O)C(O)C(O)CO (stereo not given)
units-of-measure: %
growth inhibition: -8.8
//
molecule: ONC(CC(O)(NO)NO)c1ccccc1 (stereo not given)
units-of-measure: %
growth inhibition: -25.9
//
molecule: O=C1OC(c2ccccc2)=N/C1=C/C=C/c1ccco1
units-of-measure: %
growth inhibition: -40.3
//
molecule: O=C(O)C(c1ccccc1)N1C(=O)C(Cl)=C(Cl)C1=O (stereo not given)
units-of-measure: %
growth inhibition: 10.8
//
molecule: O=C(/C=C/c1ccc(OCc2ccccc2)cc1)c1cccc([N+](=O)[O-])c1
units-of-measure: %
growth inhibition: 12.2
//
molecule: NC(N)=NC(N)=Nc1cc(Cl)c(Cl)cc1Cl
units-of-measure: %
growth inhibition: 99.3
//
molecule: CCOc1ccc(N=Nc2c(N)nc(N)[nH]c2=O)cc1
units-of-measure: %
growth inhibition: 24.1
//
molecule: O=C1NC(=O)[C@@]2(CC[C@@H](O)C2)c2ccncc21
units-of-measure: %
growth inhibition: -86.5
//
molecule: CCOC(=O)Cc1nc(/C(C#N)=C/c2ccco2)[nH]c(=O)c1C#N
units-of-measure: %
growth inhibition: 39.6
//
molecule: S=c1nc[nH]c2c1ncn2Cc1ccco1
units-of-measure: %
growth inhibition: 5
//
molecule: Nc1nc(-c2ccc(Cl)cc2)cc(-c2cc(-c3ccc(Cl)cc3)nc(N)n2)n1
units-of-measure: %
growth inhibition: 25.4
//
molecule: N#CC(c1ccccc1)c1ccc2ccccc2n1 (stereo not given)
units-of-measure: %
growth inhibition: -0.9
//
molecule: NC1=CNC(=O)C1
units-of-measure: %
growth inhibition: -7.4
//
molecule: O=C(O)c1ccccc1C(=O)Nn1cnnc1
units-of-measure: %
growth inhibition: -0.1
//
molecule: O=C(NC1c2ccccc2Oc2ccccc21)OCCI
units-of-measure: %
growth inhibition: 19.8
//
molecule: CCOC(=O)CC1(N)CC2c3ccccc3OC(=O)C2C(=O)N1 (stereo not given)
units-of-measure: %
growth inhibition: -33.6
//
molecule: COc1ccc(C(C)c2cc(N=NC(N)=O)c(OC)cc2O)cc1 (stereo not given)
units-of-measure: %
growth inhibition: 12.7
//
molecule: O=C(C/C(CCC(=O)N(Cc1ccccc1)Cc1ccccc1)=N/Nc1ccc([N+](=O)[O-])cc1[N+](=O)[O-])c1ccccc1
units-of-measure: %
growth inhibition: 61.8
//
molecule: CN(C)CCOC(=O)C1C2CC3OC(=O)C1C3C2 (stereo not given)
units-of-measure: %
growth inhibition: -19.4
//
molecule: O=C1CC(Br)C(c2ccccc2)(c2ccccc2)O1 (stereo not given)
units-of-measure: %
growth inhibition: 32
//
molecule: N#C/C(=C\c1ccc2ccccc2c1)C(=O)c1ccccc1
units-of-measure: %
growth inhibition: -47.7
//
molecule: CC(C#N)C(=O)O (stereo not given)
units-of-measure: %
growth inhibition: -18.5
//
molecule: O=C(O)c1ccc(/C=N/N=C2c3ccccc3-c3ccccc32)cc1
units-of-measure: %
growth inhibition: 64.2
//
molecule: CCC1([N+](=O)[O-])COC(CCc2ccccc2)OC1 (stereo not given)
units-of-measure: %
growth inhibition: -19.9
